# SYSTEM: Transient receptor potential cation channel subfamily V member 1 (Homo sapiens, UniProt Q8NER1)
# Sequence (Q8NER1 whole entry): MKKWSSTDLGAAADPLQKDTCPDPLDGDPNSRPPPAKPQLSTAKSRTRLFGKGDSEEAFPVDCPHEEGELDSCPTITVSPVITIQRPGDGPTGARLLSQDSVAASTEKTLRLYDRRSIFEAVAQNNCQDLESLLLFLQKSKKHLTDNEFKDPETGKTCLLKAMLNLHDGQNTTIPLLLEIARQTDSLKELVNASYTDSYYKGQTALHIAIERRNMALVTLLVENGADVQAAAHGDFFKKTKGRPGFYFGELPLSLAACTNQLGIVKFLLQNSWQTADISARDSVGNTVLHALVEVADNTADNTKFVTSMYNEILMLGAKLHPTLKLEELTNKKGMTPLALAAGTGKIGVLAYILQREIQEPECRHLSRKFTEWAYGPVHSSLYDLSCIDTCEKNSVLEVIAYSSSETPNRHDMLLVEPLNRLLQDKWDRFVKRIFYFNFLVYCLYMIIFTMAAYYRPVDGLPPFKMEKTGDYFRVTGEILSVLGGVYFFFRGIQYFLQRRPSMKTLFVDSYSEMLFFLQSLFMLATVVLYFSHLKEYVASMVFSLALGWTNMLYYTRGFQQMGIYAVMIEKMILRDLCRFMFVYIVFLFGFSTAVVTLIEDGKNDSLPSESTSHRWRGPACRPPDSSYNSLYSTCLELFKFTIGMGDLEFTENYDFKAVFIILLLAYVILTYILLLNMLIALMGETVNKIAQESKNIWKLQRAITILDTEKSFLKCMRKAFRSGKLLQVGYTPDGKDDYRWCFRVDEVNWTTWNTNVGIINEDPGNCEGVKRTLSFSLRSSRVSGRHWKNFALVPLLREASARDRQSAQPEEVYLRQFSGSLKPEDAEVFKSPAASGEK
# METHOD_DESCRIPTION: Inhibition of human TRPV1 overexpressed in BEAS-2B cells assessed as residual activity at 50 uM after 30 mins by Fluo-4 AM fluorescence assay
# Type: cell-based
# reported Activity; entries follow

COMPOUND	READOUT_UNIT	Activity
CC(=O)Oc1ccccc1C(=O)O	%	84
COc1ccc2c(c1)c(CC(=O)O)c(C)n2C(=O)c1ccc(Cl)cc1	%	98
CC(C(=O)O)c1cccc(Oc2ccccc2)c1 (stereo not drawn)	%	104

* * *

# SYSTEM: Prostaglandin G/H synthase 2 (Homo sapiens)
# Sequence (P35354 whole entry): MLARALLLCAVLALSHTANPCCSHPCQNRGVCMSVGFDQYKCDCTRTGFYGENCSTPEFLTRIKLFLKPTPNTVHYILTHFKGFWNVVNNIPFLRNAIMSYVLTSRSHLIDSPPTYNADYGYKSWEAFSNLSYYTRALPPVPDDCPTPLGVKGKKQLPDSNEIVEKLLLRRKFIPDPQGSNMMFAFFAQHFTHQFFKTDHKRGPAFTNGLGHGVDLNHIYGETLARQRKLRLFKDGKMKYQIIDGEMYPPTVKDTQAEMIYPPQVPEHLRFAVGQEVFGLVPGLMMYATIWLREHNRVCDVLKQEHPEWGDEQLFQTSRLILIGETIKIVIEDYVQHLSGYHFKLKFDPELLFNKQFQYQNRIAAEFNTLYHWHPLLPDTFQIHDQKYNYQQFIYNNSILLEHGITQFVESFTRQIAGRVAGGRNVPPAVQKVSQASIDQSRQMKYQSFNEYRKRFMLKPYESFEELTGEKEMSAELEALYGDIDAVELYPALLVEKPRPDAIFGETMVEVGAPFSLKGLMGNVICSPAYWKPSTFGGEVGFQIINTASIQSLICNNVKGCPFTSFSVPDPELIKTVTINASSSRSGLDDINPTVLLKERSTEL
# METHOD_DESCRIPTION: Inhibition of human recombinant COX2 assessed as inhibition of ADHP to fluorescent resorufin conversion by fluorescence assay

COMPOUND	SYSTEM	READOUT_UNIT	IC50
CC(C(=O)NCCc1c[nH]c2ccc(O)cc12)c1cccc(Oc2ccccc2)c1 (stereo not given)	Prostaglandin G/H synthase 2 (Homo sapiens)	µM	7
CC(C(=O)NCCc1c[nH]c2ccc(O)cc12)c1ccc(-c2ccccc2)c(F)c1 (stereo not given)	Prostaglandin G/H synthase 2 (Homo sapiens)	µM	8
COc1ccc2cc([C@H](C)C(=O)NCCc3c[nH]c4ccc(O)cc34)ccc2c1	Prostaglandin G/H synthase 2 (Homo sapiens)	µM	18
CCCCC/C=C\C/C=C\C/C=C\C/C=C\CCCC(=O)NCCc1c[nH]c2ccc(O)cc12	Prostaglandin G/H synthase 2 (Homo sapiens)	µM	5
CC(C)Cc1ccc(C(C)C(=O)NCCc2c[nH]c3ccc(O)cc23)cc1 (stereo not given)	Prostaglandin G/H synthase 2 (Homo sapiens)	µM	10
